Source: paper PMC9186491

Test system: JAK1-dependent IL6-induced phosphorylation of STAT3 (Tyr705) in TF1 cells
Test: JAK cellular selectivity assay, IL6-pSTAT3 (JAK1)
Type: cell-based
Details: Homo sapiens, TF-1, read-out: JAK Cellular Selectivity (IC50) IL6-pSTAT3 (JAK1)
QUANTITY: pIC50
# pIC50 is unitless: minus log10 of the molar concentration; print number only

Prompt: Consider the compound shown here: "CNC(=O)c1nnc(Nc2ccc(N3CCC3)cn2)cc1Nc1cccc(-c2ncn(C)n2)c1OC" What is its recorded pIC50?
Response: 6.70

---

Test system: IFNα-induced TYK2/phosphoSTAT1 (Tyr701) in Kit225 T cells
Assay: Kit225 T cell assay for IFNα-induced TYK2/phosphoSTAT1 activity
Format: cell-based, human
Settings: Homo sapiens; Kit225 cells, 80 ng/mL IFNα, AlphaLISA; read-out: IC50 IFNα-induced-STAT1 Phosphorylation
This section presents compounds with their documented pIC50 values.
# pIC50 is unitless: minus log10 of the molar concentration; print number only

Check out these entries, answers already filled in.
CNC(=O)c1nnc(NC(=O)C2CC2)c2[nH]c(-c3ccc(N)cc3OC)cc12 :: 7.82
CNC(=O)c1nnc(NC(=O)N2CCC2)cc1Nc1cccc(-c2ncn(C)n2)c1OC :: 7.43

Now for another entry.
Prompt: Consider the compound shown here: "[2H]C([2H])([2H])NC(=O)c1nnc(NC(=O)N2CCC2)cc1Nc1cccc(-c2ncn(C)n2)c1OC" What is its recorded pIC50?
Response: 7.12
